# assay: Cmax in Sprague-Dawley rat at 50 mg/kg, po
# Type: ADME, organism-based
# Parameters: dose 50 mg/kg, route oral
# experimental setup: in vivo
readout name: Cmax (ng/mL)
Field format: number, assumed ng/mL, no unit text.

Exam item: Any idea what its Cmax is? The compound is "CC(C)(C)C[C@H]1N[C@@H](C(=O)NCC[C@H](O)CO)[C@H](c2cccc(Cl)c2F)[C@@]12C(=O)Nc1cc(Cl)ccc12"
Marked response: 1510

----------
# Tested on: Rattus norvegicus
# assay: AUC (0 to t) in Sprague-Dawley rat at 25 mg/kg, po
# Type: ADME, organism-based, Plasma
# Parameters: dose 25 mg/kg, route oral
# experimental setup: in vivo
readout name: AUC (ng·h/mL)
Give just the numeric value; ng·h/mL need not be written.

Exam item: Form field: reported AUC of "CC(C)(C)C[C@H]1N[C@@H](C(=O)NCC[C@@H](O)CO)[C@H](c2cccc(Cl)c2)[C@@]12C(=O)Nc1cc(Cl)c(F)cc12"
Marked response: 11700

----------
# assay: Terminal half life in Sprague-Dawley rat at 50 mg/kg, po
# Format: ADME, organism-based
# Set-up: dose 50 mg/kg, route oral
# experimental setup: in vivo, read-out: beta t1/2 (converted)
readout name: half-life (h)
Give the number; h is assumed, so skip it.

Exam item: Look up half-life: "CC(C)(C)C[C@H]1N[C@@H](C(=O)NCC[C@H](O)CO)[C@H](c2cccc(Cl)c2F)[C@@]12C(=O)Nc1cc(Cl)ccc12"
Marked response: 3.9

----------
# assay: Cmax in Sprague-Dawley rat at 25 mg/kg, po
# Assay type: ADME, organism-based
# Set-up: dose 25 mg/kg, route oral
# experimental setup: in vivo
The compounds listed here are annotated with their Cmax.
Note: unit ng/mL is implicit; provide only the numeric part.

Example results:
>>> observed_measurement("COCCOCCNC(=O)[C@@H]1N[C@H](CC(C)(C)C)[C@]2(C(=O)Nc3cc(Cl)ccc32)[C@H]1c1cccc(Cl)c1F")
97
>>> observed_measurement("CC(C)(C)C[C@H]1N[C@@H](C(=O)NC[C@H](O)CO)[C@H](c2cccc(Cl)c2)[C@@]12C(=O)Nc1cc(Cl)c(F)cc12")
2070
>>> observed_measurement("CC(C)(C)C[C@H]1N[C@@H](C(=O)NCC[C@H](O)CO)[C@H](c2cccc(Cl)c2)[C@@]12C(=O)Nc1cc(Cl)c(F)cc12")
3750
>>> observed_measurement("CC(C)(C)C[C@H]1N[C@@H](C(=O)NCC[C@@H](O)CO)[C@H](c2cccc(Cl)c2)[C@@]12C(=O)Nc1cc(Cl)c(F)cc12")
3550
>>> observed_measurement("CC(C)(C)C[C@H]1N[C@@H](C(=O)NCCN2CCOCC2)[C@H](c2cccc(Cl)c2F)[C@@]12C(=O)Nc1cc(Cl)ccc12")
248

Exam item: Fill blank: measured Cmax of the compound "CN1CCN(CCNC(=O)[C@@H]2N[C@H](CC(C)(C)C)[C@]3(C(=O)Nc4cc(Cl)ccc43)[C@H]2c2cccc(Cl)c2F)CC1" is ____.
Marked response: 274

Exam item: Would you kindly share the measured Cmax for "CN1CCC(CCNC(=O)[C@@H]2N[C@H](CC(C)(C)C)[C@]3(C(=O)Nc4cc(Cl)ccc43)[C@H]2c2cccc(Cl)c2F)CC1" ?
Marked response: 120

Exam item: Form field: reported Cmax of "CC(C)(C)C[C@H]1N[C@@H](C(=O)NCC[C@H](O)CO)[C@H](c2cccc(Cl)c2)[C@@]12C(=O)Nc1cc(Cl)ccc12"
Marked response: 805
